# System: HL-1
# experiment_description: relative cell viability (CellTiter-Glo) vs DMSO control (% of DMSO control); higher = more viable cells
# condition_info: oxygen condition: normoxia 72 h; 40 nM
Where a name gives a salt, the structure may show the parent alone.
Measured relative cell viability accompanies every entry in the list below.
observable: relative cell viability

>>> df
                                    compound  experimental_result
 0  O=C1c2c(O)ccc(O)c2C(=O)c2c(NCCNCCO)ccc(NCCNCCO)c21 [Mitoxantrone Hydrochloride]                 4.75
 1  C[C@H](Cc1cc2c(c(C(N)=O)c1)N(CCCO)CC2)NCCOc1ccccc1OCC(F)(F)F [Silodosin]                  102
 2  OCCOCCN1CCN(C2=Nc3ccccc3Sc3ccccc32)CC1 [Quetiapine fumarate]                  103
 3  COc1ccccc1OCCNCC(O)COc1cccc2[nH]c3ccccc3c12 (stereo unspecified) [Carvedilol]                  104
 4  CN(CCOc1ccc(NS(C)(=O)=O)cc1)CCc1ccc(NS(C)(=O)=O)cc1 [Dofetilide]                  101
 5  COc1ccccc1OCC(O)CN1CCN(CC(=O)Nc2c(C)cccc2C)CC1 (stereo unspecified) [Ranolazine]                  105
 6  C[C@@H](Oc1cc(-c2cnn(C3CCNCC3)c2)cnc1N)c1c(Cl)ccc(F)c1Cl [Crizotinib]                 98.8
 7       Cc1cnc(C(=O)O)c[n+]1[O-] [Acipimox]                  101
 8  CC[C@@]1(O)C(=O)OCc2c1cc1n(c2=O)Cc2cc3c(CN(C)C)c(O)ccc3nc2-1 [Topotecan HCl]                 52.3
 9  C[N+](C)(C)C[C@H](O)CC(=O)[O-] [L-carnitine]                  101
10  O=C1O[C@H]([C@@H](O)CO)C([O-])=C1O.[Na+] [Sodium ascorbate]                 98.8
11  CCN(CC)CCOc1ccc(C(=C(Cl)c2ccccc2)c2ccccc2)cc1 [Clomifene citrate]                  111
12  Cc1cc(N)c2ccccc2[n+]1CCCCCCCCCC[n+]1c(C)cc(N)c2ccccc21 [Dequalinium chloride]                 93.3
13  COc1cccc2c1C(=O)c1c(O)c3c(c(O)c1C2=O)C[C@@](O)(C(=O)CO)C[C@@H]3O[C@H]1C[C@H](N)[C@H](O)[C@H](C)O1 [Doxorubicin]                   63
14  CC(C)(OCc1nn(Cc2ccccc2)c2ccccc12)C(=O)O [Bindarit]                 96.7
15                    NC(=O)NO [Hydroxyurea]                  108
16  CC(=O)/N=c1/sc(S(N)(=O)=O)nn1C [Methazolamide]                  110
17         O=c1[nH]cc(F)c(=O)[nH]1 [Adrucil]                 96.6
18  CCCC(=O)OCOC(=O)C1=C(C)NC(C)=C(C(=O)OC)C1c1cccc(Cl)c1Cl (stereo unspecified) [Cleviprex]                 91.9
19  CCCCCN(C)CCC(O)(P(=O)(O)O)P(=O)(O)O [Ibandronate sodium]                 99.9
20   CCN(CC)C(=S)SSC(=S)N(CC)CC [Disulfiram]                 19.2
21  O=C(O)c1cn(C2CC2)c2cc(N3CCNCC3)c(F)cc2c1=O [Ciprofloxacin]                 97.4
22  CC(S)C(=O)NCC(=O)O (stereo unspecified) [Tiopronin]                 99.2
23                   O=C(O)c1cccnc1 [Niacin]                  110
24  C=C[C@H]1CN2CC[C@H]1C[C@H]2[C@H](O)c1ccnc2ccc(OC)cc12 [Quinine hydrochloride dihydrate]                  102
25  Nc1nc(F)nc2c1ncn2[C@@H]1O[C@H](COP(=O)(O)O)[C@@H](O)[C@@H]1O [Fludarabine Phosphate]                  108
26  CN(C)CCN(Cc1ccccc1)c1ccccn1 [Tripelennamine HCl]                   93
27  COC(=O)[C@@H]1CC2=CC(=O)CC[C@]2(C)[C@@]23O[C@@H]2C[C@@]2(C)[C@@H](CC[C@@]24CCC(=O)O4)[C@H]13 [Eplerenone]                  107
28  NS(=O)(=O)c1cc2c(cc1Cl)NC(C(Cl)Cl)NS2(=O)=O (stereo unspecified) [Trichlormethiazide]                  107
29  CCCCNc1ccc(C(=O)OCCN(C)C)cc1 [Tetracaine hydrochloride]                  103
30  CN(C)CCC(c1ccccc1)c1ccccn1 (stereo unspecified) [Pheniramine Maleate]                  105
31  COC(=O)C1=C(C)NC(C)=C(C(=O)OCCN(C)Cc2ccccc2)C1c1cccc([N+](=O)[O-])c1 (stereo unspecified) [Nicardipine HCl]                  107
32          NCCCCCC(=O)O [Aminocaproic acid]                  106
33   Nc1nc2n[nH]nc2c(=O)[nH]1 [Azaguanine-8]                  103
34  C[C@H](N[C@@H](CCc1ccccc1)C(=O)O)C(=O)N1CCC[C@H]1C(=O)O [Enalaprilat dihydrate]                  104
35  CCOC(=O)C1=C(C)NC(C)=C(C(=O)OC)C1c1cccc(Cl)c1Cl (stereo unspecified) [Felodipine]                 99.1
